- System under test: HLA-A*03:01
- Protocol notes: IEDB peptide-MHC binding, purified MHC/direct/fluorescence; filed as Kd, often an IC50 or EC50 that approximates it; bounds were set here for any values at or beyond the usual limits of such assays
- Test context: source organism: Bacillus mycoides
Observed property: pKd
Lab note — pKd values are minus log10 of concentrations in M.

# lookup: pKd of GMFDWESMK
6.68

###

- System under test: HLA-B*44:02
- Protocol notes: IEDB peptide-MHC binding, purified MHC/direct/fluorescence; filed as Kd, often an IC50 or EC50 that approximates it; bounds were set here for any values at or beyond the usual limits of such assays
- Test context: source organism: Salmonella enterica subsp. enterica serovar Typhimurium
Observed property: Kd

# lookup: Kd of YSDIFNNVL
≥ 20 µM
